// each record: one item and its MNEC for DNA gyrase (Escherichia coli) (UniProt P0AES6+P0AES4)
Write the answer as a number in µg/mL, unit excluded.

Observe how each entry below is paired with its result.
{"columns": ["molecule", "unitText", "experimentalResult"],
 "data": [
  ["Cc1c(O)cc(O)c2c1C(=O)OCC(NC(=O)OC(C)(C)C)C(=O)NCCSC2 (stereo not drawn)", "µg/mL", 1],
  ["COC(=O)[C@@H]1CSCc2c(O)cc(OC)c(C)c2C(=O)OCC(NC(=O)OC(C)(C)C)C(=O)N1 (stereo partly drawn)", "µg/mL", 0.2],
  ["COC(=O)[C@@H]1CSCc2c(O)cc(OC)c(C)c2C(=O)OCCC/C(S)=N/1", "µg/mL", 0.4],
  ["COC(=O)[C@@H]1CSCc2c(O)cc(O)c(C)c2C(=O)OCC(NC(=O)[C@H]2C(O)CCN2C(=O)OC(C)(C)C)C(=O)N1 (stereo partly drawn)", "µg/mL", 1],
  ["COC(=O)[C@@H]1CSCc2c(O)cc(O)c(C)c2C(=O)OCC(NC(=O)OC(C)(C)C)C(=O)N1 (stereo partly drawn)", "µg/mL", 0.2],
  ["COc1cc(O)c2c(c1C)C(=O)OCCC/C(S)=N/[C@H](c1nc(C)no1)CSC2", "µg/mL", 0.004]
]}

Shifting focus to the molecule that follows.
The recorded MNEC for `COC(=O)[C@@H]1CSCc2c(O)cc(OC)c(C)c2C(=O)OCCCCC/C(S)=N/1` is 0.5
